Below, each of the molecules is paired with its reported GI50 value.
Test system: SNB-78
measurement_notes: NCI tumour cell line growth inhibition, 48 h
Calls of active or inactive are those of the source. No stated cut-off is given here; in the data, active = GI50 up to about 1.1 µM and inactive = higher.

[
  {
    "molecule": "CN(C)c1ccc(/C=c2\\sc3nnc(Cc4ccccc4)n3c2=O)cc1",
    "test_result": "> 10 µM (inactive)"
  },
  {
    "molecule": "CCOC(=O)CC(=O)ON(C)C(C)=O",
    "test_result": "> 100 µM (inactive)"
  }
]

Prompt: Indicate the recorded GI50 value for this molecule: COC(=O)C1=C(C(=O)OC)C2(OC(C)=O)c3ccccc3-c3ccccc3C12 (centres undefined)
Completion: 4.95 µM (inactive)

Prompt: Indicate the recorded GI50 value for this molecule: Cc1ccc(C)c(NC(=O)CCc2n[nH]c(=S)o2)c1
Completion: > 100 µM (inactive)

Prompt: Indicate the recorded GI50 value for this molecule: CCOC(OCC)c1ccc(/C=C/c2cc(OC)c(OC)c(OC)c2)cc1
Completion: 27 µM (inactive)

Prompt: Indicate the recorded GI50 value for this molecule: Cc1cccc(NC(=O)c2cccc([N+](=O)[O-])c2O)c1C
Completion: 85.5 µM (inactive)

Prompt: Indicate the recorded GI50 value for this molecule: COc1ccc2c(c1)CC1c3c(ccc(OC)c3O)CC2N1C (centres undefined)
Completion: 24.3 µM (inactive)

Prompt: Indicate the recorded GI50 value for this molecule: COc1cccc(N2C(=O)c3c(c4[nH]c5ccccc5c4c4ccc(C(C)(C)C)cc34)C2=O)c1
Completion: > 100 µM (inactive)

Prompt: Indicate the recorded GI50 value for this molecule: CN(C)CC1CC/C(=C\c2ccc3c(c2)OCO3)C1=O (centres undefined)
Completion: 21.8 µM (inactive)
